# System: NCI-H460 lung
# test_method_notes: NCI tumour cell line growth inhibition, 48 h
*1 amine or outer side, *2 acyl side, *3 side chain or, on linkers, in order; H or OH if unused. Where a SMILES comes first, the peptide text is derived from it. Bridges are numbered along the chain shown (N, C = ends). Roman numbers before positions name the chains, in order. X23 = CCCCCCCCCCCCCCC(=O)NC(CCCCN[*:2])C(=O)CN1CCCC1C(=O)[*:1]
assay_metric: TGI

# molecule, recorded_value
measured = [
    ("[O-]/N=N\\c1on[n+](CCc2ccccc2)c1Cc1c(/N=N/[O-])on[n+]1CCc1ccccc1", "> 100 µM"),
    ("c1ccc(-c2sc(-c3ccccc3)c3c2C2CCC3C2)cc1", "88.2 µM"),
    ("CCCCCCCCCCCCCCC(=O)NC(CCCCNC(=O)C1CCCN1C(=O)C(CCCCN)NC(=O)C(CCCCN)NC(=O)C(CCCCN)NC(=O)C(CCCNC(=N)N)NC(=O)C(CCCCN)NC(=O)C(N)C(C)C)C(=O)CN1CCCC1C(=O)NCC(=O)NC(Cc1ccccc1)C(=O)N1CCCC1C(=O)NC(CO)C(=O)NC(Cc1ccc(O)cc1)C(=O)NC(CCCCN)C(=O)NC(CC(C)C)C(=O)NC(CCCNC(=N)N)C(=O)N1CCCC1C(=O)NCC(N)=O (stereo unspecified) (I: GFPSYKLRPG-NH2 / II: H-VKRKKKP; linker I:N-II:C via X23; configuration not given here)", "49.9 µM"),
    ("CC(=O)Nc1c(I)c(C(=O)O)c(I)c(N(C)C(C)=O)c1I", "> 100 µM"),
    ("O=c1[nH]cc(CO)c(=O)[nH]1", "> 100 µM"),
]

Q: Any idea what TGI came out for c1ccc2c(c1)ncn2CCn1ccnc1 on NCI-H460 lung?
Result: > 100 µM

Q: Report TGI for CC1(Br)S(=O)(=O)OCCOS1(=O)=O tested on NCI-H460 lung.
Result: > 100 µM

Q: Fill in the recorded TGI for this molecule, with NCI-H460 lung as test system: CN(C)C=NCc1ccc2c(c1)OCO2
Result: > 100 µM
